# Tested on: Escherichia coli TOP10
# procedure.summary: shrunken log2 fold change of peptide-encoding DNA abundance (4.5 h post-induction vs induction); higher = less antimicrobial activity (less host growth inhibition)
# assay.conditions: time post-induction: 4.5 h; library: site-saturation at positions 5, 18, 19, 20
measured.metric: shrunken log2 fold change
Give a plain numeric answer without units written out.

// known answers, use as guide
RRIRARPPRLPRPRPRPDPGPRP; 0.29
RRIRFRPPRLPRPRPRPPTPPRP; 0.908
RRIRDRPPRLPRPRPRPNWGPRP; 0.061

Problem: Request: shrunken log2 fold change, test system Escherichia coli TOP10, entry `RRIRARPPRLPRPRPRPARCPRP`
Solution: 0.331

Problem: Also need `RRIRMRPPRLPRPRPRPTKTPRP` , thanks.
Solution: 0.334

Problem: Queued: `RRIRIRPPRLPRPRPRPLQCPRP`
Solution: 0.0339

Problem: Also `RRIRSRPPRLPRPRPRPELEPRP` , if possible.
Solution: 0.54

Problem: How about this sequence: `RRIRARPPRLPRPRPRPDMEPRP`
Solution: -0.0243

Problem: Similarly, `RRIRDRPPRLPRPRPRPILEPRP` ?
Solution: -0.0842

* * *

# Lookup of reported shrunken log2 fold change keyed by entry
# Test system: Escherichia coli TOP10
# procedure.summary: shrunken log2 fold change of peptide-encoding DNA abundance (4.5 h post-induction vs induction); higher = less antimicrobial activity (less host growth inhibition)
# assay.conditions: time post-induction: 4.5 h; library: site-saturation at positions 5, 18, 19, 20
Format: numeric value only, no unit, no commentary.

Below: 2 sequences and their reported shrunken log2 fold change.
RRIRWRPPRLPRPRPRPYNVPRP; -0.758
RRIRPRPPRLPRPRPRPQCEPRP; -0.0437

Now, please, on to the next sequence.
Problem: If you can, please state the reported shrunken log2 fold change value of `RRIRSRPPRLPRPRPRPMKQPRP` .
Solution: 0.00692

* * *

Listing: shrunken log2 fold change of selected sequences
# Tested on: Escherichia coli TOP10;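 further: peptides expressed intracellularly from a pBAD plasmid library in pooled LB shake-flask culture, induced with 0.3% L-arabinose, DNA abundance read by NGS, three biological replicates, DESeq2 with apeglm shrinkage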
# procedure.summary: shrunken log2 fold change of peptide-encoding DNA abundance (4.5 h post-induction vs induction); higher = less antimicrobial activity (less host growth inhibition)
# assay.conditions: time post-induction: 4.5 h; library: site-saturation at positions 5, 18, 19, 20
Give your answer as a number; write no unit.

Below are worked cases with known answers.
RRIRQRPPRLPRPRPRPCDPPRP; -0.0819
RRIRKRPPRLPRPRPRPSGQPRP; 0.244
RRIRFRPPRLPRPRPRPYFNPRP; -1.04
RRIRERPPRLPRPRPRPAHGPRP; 0.131
RRIRYRPPRLPRPRPRPGMCPRP; 0.0154

Problem: Recorded shrunken log2 fold change for `RRIRLRPPRLPRPRPRPCTNPRP` , please?
Solution: -0.094

Problem: Further, for `RRIRDRPPRLPRPRPRPVRMPRP` ?
Solution: 0.059

Problem: # repeat for `RRIRVRPPRLPRPRPRPSTDPRP`
Solution: -0.0464

Problem: // same read-out, input: `RRIRKRPPRLPRPRPRPRNLPRP`
Solution: 0.525

Problem: Also `RRIRCRPPRLPRPRPRPRSHPRP` ?
Solution: -0.00365

Problem: Another: `RRIRSRPPRLPRPRPRPFCAPRP`
Solution: 0.0376

Problem: Now give it for `RRIRERPPRLPRPRPRPAWNPRP` too.
Solution: 0.167

Problem: Then this sequence: `RRIRERPPRLPRPRPRPHMPPRP`
Solution: -0.197

Problem: // repeat for `RRIRRRPPRLPRPRPRPMNGPRP` and report
Solution: -0.0419

Problem: Then this sequence: `RRIRFRPPRLPRPRPRPSQFPRP`
Solution: -0.44

Problem: Now the sequence `RRIRVRPPRLPRPRPRPYGSPRP`
Solution: -0.409

Problem: And for `RRIRIRPPRLPRPRPRPDTDPRP` ?
Solution: -0.194

Problem: Please do the same for `RRIRHRPPRLPRPRPRPLNGPRP` as well.
Solution: -0.178

Problem: Next sequence up: `RRIRSRPPRLPRPRPRPAAQPRP`
Solution: 0.833

Problem: Moving on to the next sequence: `RRIRQRPPRLPRPRPRPIPEPRP`
Solution: 0.0343

Problem: Proceed to `RRIRLRPPRLPRPRPRPTAGPRP`
Solution: 0.53

Problem: Same question, `RRIRARPPRLPRPRPRPDRHPRP` this time
Solution: 0.0379
